Assay: Pharmacokinetics after multiple oral administrations to psoriatic patients for 28 days
Type: in vivo, human
Conditions: human, blood; 5 mg q.d. oral, Day 28, Mean ± SD
Protocol: Table 4. Summary of Cmax and AUCτ Following Multiple Oral Administrations of Pimecrolimus to Psoriatic Patients for 28 Days In this study pimecrolimus was rapidly absorbed with a median tmax across all the dose groups and collection days of between 0.8 and 2.0 hours. […] There was no effect of age or weight on the apparent clearance of pimecrolimus.
measurement_type: Cmax at 672 h (ng/mL)
# value in ng/mL; strip the unit string

Would you mind telling me what Cmax at 672 h value was observed for CC[C@@H]1/C=C(\C)C[C@H](C)C[C@H](OC)[C@H]2O[C@@](O)(C(=O)C(=O)N3CCCC[C@H]3C(=O)O[C@H](/C(C)=C/[C@@H]3CC[C@H](Cl)[C@H](OC)C3)[C@H](C)[C@@H](O)CC1=O)[C@H](C)C[C@@H]2OC [pimecrolimus, 33-epichloro-33-desoxy-ascomycin] ?
9.9

* * *

test: Pharmacokinetics after multiple oral administrations to psoriatic patients for 28 days; format: in vivo, human; settings: human, blood; 30 mg b.i.d. oral, Day 13, Mean ± SD
measurement_type: Cmax at 312 h (ng/mL)
# value in ng/mL; strip the unit string

Would you mind telling me what Cmax at 312 h value was observed for CC[C@@H]1/C=C(\C)C[C@H](C)C[C@H](OC)[C@H]2O[C@@](O)(C(=O)C(=O)N3CCCC[C@H]3C(=O)O[C@H](/C(C)=C/[C@@H]3CC[C@H](Cl)[C@H](OC)C3)[C@H](C)[C@@H](O)CC1=O)[C@H](C)C[C@@H]2OC [pimecrolimus, 33-epichloro-33-desoxy-ascomycin] ?
54.5

* * *

assay: Pharmacokinetics after multiple oral administrations to psoriatic patients for 28 days; format: in vivo, human; conditions: human, blood; 20 mg q.d. oral, Day 28, Mean ± SD
measurement_type: AUC tau at 672 h (ng·h/mL)
# value in ng·h/mL; strip the unit string

Would you mind telling me what AUC tau at 672 h value was observed for CC[C@@H]1/C=C(\C)C[C@H](C)C[C@H](OC)[C@H]2O[C@@](O)(C(=O)C(=O)N3CCCC[C@H]3C(=O)O[C@H](/C(C)=C/[C@@H]3CC[C@H](Cl)[C@H](OC)C3)[C@H](C)[C@@H](O)CC1=O)[C@H](C)C[C@@H]2OC [pimecrolimus, 33-epichloro-33-desoxy-ascomycin] ?
258

* * *

test: Pharmacokinetics after multiple oral administrations to psoriatic patients for 28 days; assay type: in vivo, human; settings: human, blood; 30 mg b.i.d. oral, Day 28, Mean ± SD
measurement_type: Cmax at 672 h (ng/mL)
# value in ng/mL; strip the unit string

Would you mind telling me what Cmax at 672 h value was observed for CC[C@@H]1/C=C(\C)C[C@H](C)C[C@H](OC)[C@H]2O[C@@](O)(C(=O)C(=O)N3CCCC[C@H]3C(=O)O[C@H](/C(C)=C/[C@@H]3CC[C@H](Cl)[C@H](OC)C3)[C@H](C)[C@@H](O)CC1=O)[C@H](C)C[C@@H]2OC [pimecrolimus, 33-epichloro-33-desoxy-ascomycin] ?
41.1

* * *

test: Pharmacokinetics after multiple oral administrations to psoriatic patients for 28 days; assay type: in vivo, human; details: human, blood; 10 mg q.d. oral, Day 13, Mean ± SD
measurement_type: Cmax at 312 h (ng/mL)
# value in ng/mL; strip the unit string

Would you mind telling me what Cmax at 312 h value was observed for CC[C@@H]1/C=C(\C)C[C@H](C)C[C@H](OC)[C@H]2O[C@@](O)(C(=O)C(=O)N3CCCC[C@H]3C(=O)O[C@H](/C(C)=C/[C@@H]3CC[C@H](Cl)[C@H](OC)C3)[C@H](C)[C@@H](O)CC1=O)[C@H](C)C[C@@H]2OC [pimecrolimus, 33-epichloro-33-desoxy-ascomycin] ?
21.8
